- Test system: recombinant NL-Rluc virus (NL4-3 with Renilla Luciferase gene) in MT-2 cells
- ASSAY TEXT: Inhibition of HIV replication (NL-Rluc luciferase reporter virus, MT-2 cells)
- Assay type: cell-based, human immunodeficiency virus (HIV)
- CONDITION PARAMETERS: NL43, 120 h, read-out: Activity
Structures can show the parent of a compound that is named as a salt.
RECORDED METRIC: EC50

Reference set, count: 2
Query block: Please give the documented EC50 of Cc1nc2cc(-c3ccccc3)nn2c(-c2ccc3c(c2)OCCCO3)c1C(OC(C)(C)C)C(=O)O (stereo not drawn)
Result block: > 1000 nM

Query block: Please give the documented EC50 of "Cc1nc2c(C)c(-c3cccc(-c4ccc5c(cnn5C)c4)c3)nn2c(-c2cc(F)c3c(c2C)CCCO3)c1[C@H](OC(C)(C)C)C(=O)O"
Result block: < 100 nM

Turning to the following molecule.
Query block: Please give the documented EC50 of Cc1nc2cc(-c3cccc(C(=O)NCc4ccccc4)c3)nn2c(-c2cc(F)c3c(c2C)CCCO3)c1C(OC(C)(C)C)C(=O)O (stereo not drawn) [Example 111, TFA salt]
Result block: 100 to 1000 nM

###

- Test system: recombinant NL-Rluc virus (NL4-3 with Renilla Luciferase gene) in MT-2 cells
- ASSAY TEXT: Inhibition of HIV replication (NL-Rluc luciferase reporter virus, MT-2 cells)
- Format: cell-based, human immunodeficiency virus (HIV)
- CONDITION PARAMETERS: NL43, 120 h, read-out: Activity
pEC50: −log10 of the molar value. Structures can show the parent of a compound that is named as a salt.
RECORDED METRIC: pEC50

Query block: Please give the documented pEC50 of Cc1nc2cc(-c3cccc(Cl)c3)nn2c(-c2ccc(F)cc2)c1[C@H](OC(C)(C)C)C(=O)O [Example 147]
Result block: < 6.00

Query block: Please give the documented pEC50 of Cc1nc2cc(-c3ccccc3)nn2c(-c2ccc(C)c3ccccc23)c1C(OC(C)(C)C)C(=O)O (stereo not shown) [Example 87]
Result block: < 6.00

Continuing:
Query block: Please give the documented pEC50 of Cc1nc2cc(-c3cccc(Oc4ccccc4)c3)nn2c(-c2cc(F)c3c(c2C)CCCO3)c1C(OC(C)(C)C)C(=O)O (stereo not shown) [Example 97, TFA salt]
Result block: > 7.00

Query block: Please give the documented pEC50 of COc1ccc(-c2c(C(OC(C)(C)C)C(=O)O)c(C)nc3cc(-c4ccccc4)nn23)cn1 (stereo not shown) [Example 12]
Result block: < 6.00

Query block: Please give the documented pEC50 of Cc1ccc(-c2c(C(OC(C)(C)C)C(=O)O)c(C)nc3cc(-c4ccccc4)nn23)cn1 (stereo not shown) [Example 77]
Result block: < 6.00

Query block: Please give the documented pEC50 of Cc1nc2cc(-c3cccc(OCc4ccccc4Cl)c3)nn2c(-c2cc(F)c3c(c2C)CCCO3)c1C(OC(C)(C)C)C(=O)O (stereo not shown) [Example 102, TFA salt]
Result block: > 7.00

Query block: Please give the documented pEC50 of Cc1nc2c(Br)c(-c3ccccc3)nn2c(-c2cc(F)c3c(c2C)CCCO3)c1[C@H](OC(C)(C)C)C(=O)O [Example 138]
Result block: 6.00 to 7.00

Query block: Please give the documented pEC50 of COc1ccc(-c2cc3nc(C)c(C(OC(C)(C)C)C(=O)O)c(-c4cc(F)c5c(c4C)CCCO5)n3n2)cc1 (stereo not shown) [Example 92, TFA salt]
Result block: 6.00 to 7.00

Query block: Please give the documented pEC50 of Cc1nc2cc(-c3ccccc3)nn2c(-c2cc(F)c3c(c2C)CCCO3)c1C(OC(C)(C)C)C(=O)O (stereo not shown) [Example 38]
Result block: 6.00 to 7.00
